- system: PI3K-β (Homo sapiens, UniProt P42338)
- Sequence (P42338 whole entry, species assumed): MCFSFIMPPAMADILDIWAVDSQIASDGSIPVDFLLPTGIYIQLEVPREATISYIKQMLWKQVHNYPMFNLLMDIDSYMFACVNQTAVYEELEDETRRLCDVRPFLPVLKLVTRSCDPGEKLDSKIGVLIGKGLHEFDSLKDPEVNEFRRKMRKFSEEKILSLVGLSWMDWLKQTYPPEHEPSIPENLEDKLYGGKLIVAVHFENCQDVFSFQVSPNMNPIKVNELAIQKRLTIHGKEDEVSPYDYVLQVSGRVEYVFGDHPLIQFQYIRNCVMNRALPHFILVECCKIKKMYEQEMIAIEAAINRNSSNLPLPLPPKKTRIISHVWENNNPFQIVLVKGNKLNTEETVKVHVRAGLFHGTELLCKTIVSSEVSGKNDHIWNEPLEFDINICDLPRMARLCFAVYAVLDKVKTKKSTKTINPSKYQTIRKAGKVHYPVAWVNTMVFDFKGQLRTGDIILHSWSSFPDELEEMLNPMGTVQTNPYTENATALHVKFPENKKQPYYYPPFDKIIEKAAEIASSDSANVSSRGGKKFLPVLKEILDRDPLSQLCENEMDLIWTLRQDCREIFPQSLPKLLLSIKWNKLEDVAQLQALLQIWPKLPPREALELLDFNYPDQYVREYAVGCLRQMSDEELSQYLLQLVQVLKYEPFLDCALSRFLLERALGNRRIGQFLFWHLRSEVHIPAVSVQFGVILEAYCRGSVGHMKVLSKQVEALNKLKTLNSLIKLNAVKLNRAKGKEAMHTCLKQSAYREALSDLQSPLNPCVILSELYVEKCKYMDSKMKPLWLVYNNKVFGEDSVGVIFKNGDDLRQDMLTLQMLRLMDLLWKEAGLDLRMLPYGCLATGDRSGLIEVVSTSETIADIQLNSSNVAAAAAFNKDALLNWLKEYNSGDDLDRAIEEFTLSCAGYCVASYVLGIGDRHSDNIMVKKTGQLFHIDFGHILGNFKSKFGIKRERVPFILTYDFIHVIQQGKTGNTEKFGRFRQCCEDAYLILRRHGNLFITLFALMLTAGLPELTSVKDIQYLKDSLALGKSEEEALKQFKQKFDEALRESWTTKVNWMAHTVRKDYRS
- Sequence (P27986 whole entry partner, species assumed): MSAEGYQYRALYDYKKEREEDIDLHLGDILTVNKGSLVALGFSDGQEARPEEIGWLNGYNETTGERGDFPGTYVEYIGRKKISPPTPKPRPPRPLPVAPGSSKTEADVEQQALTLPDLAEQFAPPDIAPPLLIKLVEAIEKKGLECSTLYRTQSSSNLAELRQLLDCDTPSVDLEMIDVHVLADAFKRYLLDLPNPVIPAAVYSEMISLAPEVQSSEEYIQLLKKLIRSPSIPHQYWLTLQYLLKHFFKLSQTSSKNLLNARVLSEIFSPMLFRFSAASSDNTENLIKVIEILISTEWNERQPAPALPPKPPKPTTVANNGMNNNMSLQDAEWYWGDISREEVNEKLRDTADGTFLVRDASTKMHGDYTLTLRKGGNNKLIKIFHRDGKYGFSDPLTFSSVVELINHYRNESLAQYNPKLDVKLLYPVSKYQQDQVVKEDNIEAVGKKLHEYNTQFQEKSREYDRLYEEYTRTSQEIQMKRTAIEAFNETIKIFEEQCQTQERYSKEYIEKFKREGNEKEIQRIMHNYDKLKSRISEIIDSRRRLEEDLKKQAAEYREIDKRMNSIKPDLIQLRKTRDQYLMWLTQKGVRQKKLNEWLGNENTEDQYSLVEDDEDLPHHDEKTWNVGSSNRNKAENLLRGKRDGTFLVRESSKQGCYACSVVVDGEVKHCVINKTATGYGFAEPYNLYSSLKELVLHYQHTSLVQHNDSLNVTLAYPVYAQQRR
test.readout: IC50

COc1cccc(-c2nc(Oc3ccc(NC(C)=O)cc3)c3cnn(C)c3n2)c1 [Example 49] = 1.04 µM
Cc1noc(C)c1-c1nc(Nc2ccc(C(N)=O)cc2)c2cnn(C)c2n1 [Example 63] = 2.15 µM

====

Parameter IC50: see the listing below.
- system: mTOR (Homo sapiens, UniProt P42345)
- experiment: mTOR enzyme assay (DELFIA, His6-S6K phosphorylation)
- Format: biochemical
- Design: FLAG
- test.context: 100 μM ATP, 1.25 μM His6-S6K
test.readout: IC50 (µM)

CN1CCC(NC(=O)Nc2ccc(Nc3nc(Nc4ccc(C(N)=O)cc4)c4cnn(C)c4n3)cc2)CC1 [Example 91] = 2
Cn1ncc2c(Oc3ccc(C(N)=O)cc3)nc(-c3ccccc3)nc21 [Example 75] = 9.2
CC(C)N1CCN(C(=O)c2ccc(NC(=O)Nc3ccc(Nc4nc(Nc5ccc(C(N)=O)cc5)c5cnn(C)c5n4)cc3)cc2)CC1 [Example 87] = 0.008
COc1ccc2cc(-c3nc(Oc4ccc5[nH]ccc5c4)c4cnn(C)c4n3)ccc2c1 [Example 57] = 12
CNC(=O)c1ccc(Nc2nc(Nc3ccc(NC(=O)Nc4cccnc4)cc3)nc3c2cnn3C)cc1 [Example 90] = 0.012
Cn1ncc2c(Nc3ccc(C(N)=O)cc3)nc(-c3cccc(Cl)c3)nc21 [Example 64] = 0.3
